tested on: Septoria tritici; assay: Example C: in vivo preventive test on Septoria tritici (leaf spot on wheat); settings: Zymoseptoria tritici, 576 h; 500 ppm of active ingredient; wheat plants, preventive spray; evaluated 24 days after inoculation; read-out: efficacy

{"columns": ["COMPOUND", "pest or weed control at 500 ppm"],
 "data": [
  ["COC(Cn1cncc1F)c1cnc(Oc2ccc(Cl)cc2)cc1C(F)(F)F (stereo not drawn) [I-131]", "90 to 100%"],
  ["CCCCC(O)(Cn1cncc1C#N)c1ccc(Cl)cc1 (stereo not drawn) [I-256]", "80 to 89%"],
  ["CC(O)(Cn1cncc1C#N)c1ccc(Oc2ccc(Br)cc2)cc1Cl (stereo not drawn) [I-195]", "90 to 100%"],
  ["N#Cc1cncn1CC(O)c1ccc(Oc2ccc(Br)cc2)cc1Cl (stereo not drawn) [I-40]", "80 to 89%"],
  ["OC(Cn1cncc1F)c1cnc(Oc2ccc(Br)cc2)cc1C(F)(F)F (stereo not drawn) [I-97]", "90 to 100%"],
  ["C=CC(C)C(O)(Cn1cncc1C#N)C1(Cl)CC1 (stereo not drawn) [I-311]", "90 to 100%"],
  ["C[Si](C)(C)C#Cc1ccc(C(O)(Cn2cncc2C#N)C2(F)CC2)c(Cl)c1 (stereo not drawn) [I-394]", "90 to 100%"],
  ["CCC(O)(Cn1cncc1C#N)c1ccc(F)cc1 (stereo not drawn) [I-245]", "90 to 100%"],
  ["CC(=O)OC(Cn1cncc1F)c1cnc(Oc2ccc(Cl)cc2)cc1C(F)(F)F (stereo not drawn) [I-133]", "90 to 100%"],
  ["NC(=S)c1cncn1CC(O)(c1ccc(Br)cc1Cl)C1(F)CC1 (stereo not drawn) [I-432]", "90 to 100%"],
  ["CC(O)(Cn1cncc1F)c1cnc(Oc2ccc(Br)cc2)cc1C(F)(F)F (stereo not drawn) [I-210]", "90 to 100%"],
  ["CC(O)(Cn1cncc1C#N)c1ccc(Oc2ccc(Br)cc2)cc1C(F)(F)F (stereo not drawn) [I-208]", "70 to 79%"]
]}

Recorded values, source patent US20200031778A1.
